system: SF-295 CNS; assay: NCI tumour cell line growth inhibition, 48 h
compounds and their reported TGI

Retrieve TGI measured for "O=c1oc2ccccc2c2c1Sc1ccccc1N2" and print it.
> 100 µM

Retrieve TGI measured for "CCOC(=O)Oc1c(OC)cc(C(=O)c2ccc(OC)c(O)c2OC)cc1OC" and print it.
49.7 µM

Retrieve TGI measured for "C=CCSC1=N/C(=C\c2ccc(Cl)cc2)C(=O)N1CC=C" and print it.
> 100 µM

Retrieve TGI measured for "Cc1ccc2cnc(N)c(C#Cc3cc(C(=O)Nc4ccc(CN5CCN(C)CC5)c(C(F)(F)F)c4)cnc3C)c2c1" and print it.
1.75 µM

Retrieve TGI measured for "O=C(Nc1ccccc1F)c1cc2ccc(O)cc2oc1=Nc1cccc(F)c1" and print it.
18.5 µM
